# Test system: dog anaesthetized with nembutal
# measurement.description: Blood flow in thoracic aorta (cardiac output), vertebral artery (cerebral flow) and femoral artery (musculocutaneous peripheral flow), electromagnetic flow measurement, anaesthetized dog
# Assay type: in vivo
# conditions.used: 2 mg/kg animal body weight, intravenous, vertebral artery
endpoint.name: increase in the cerebral flow (in words)

>>> result("CCCc1nc(NC(C)C)c2cscc2n1.O=C(O)/C=C\\C(=O)O")
"appreciable increase"
>>> result("CC(C)Nc1nc(Cl)nc2cscc12.Cl")
"appreciable increase"
>>> result("Cl.Clc1nc(N2CCOCC2)c2cscc2n1")
"appreciable increase"
>>> result("CCCNc1nc(NC(C)C)c2cscc2n1.O=C(O)/C=C\\C(=O)O")
"marked increase"
>>> result("CC1COCCN1c1nc(Cl)nc2cscc12.Cl (centres unmarked)")
"marked increase"
